Origin of the recorded values: a melting point compilation (Tetko et al.; mined from patent text by program, amines drawn as free bases though some values may be those of a salt)

Below, each entry is listed alongside its reported melting point.

COMPOUND	melting point
CCOC(=O)c1cn2c(n1)SCC2	107 to 109 °C
CCN1CC[C@@H]2CC(=O)c3cc(F)ccc3[C@@H]2C1 (relative stereo)	> 220 °C
CC1CC(=O)NN=C1c1ccc(-n2cnc3c2CCCC3)nc1 (centres undefined)	234 to 235 °C
O=C(Nc1ccccc1)OCC1c2ccccc2-c2ccccc21	243 to 244 °C
CS(=O)(=O)c1ccc(-c2c(F)c(F)c(F)c(F)c2-c2ccc(F)cc2)cc1	134 to 135 °C
N#Cc1cnn(-c2ccc(Cl)c(Cl)c2Cl)c1Cl	124 to 126 °C
COc1cn(-c2ccc(-c3cnn(C(F)F)c3)cc2F)nc(-c2ccnn2-c2ccccc2)c1=O	185 to 187 °C
O=[N+]([O-])c1cccc(-c2csc(NS(=O)(=O)Cc3ccccc3)n2)c1	219 to 221 °C
COc1cc(CC(=O)NC(CC(C)C)c2cc(CC(NC(C)=O)C(=O)O)on2)ccc1NC(=O)Nc1ccccc1C (centres undefined)	123 to 125 °C

====

Examples of compounds with documented melting point follow.

COMPOUND	melting point
Nc1ccc2c(c1-c1n[nH]cc1Cl)OC(F)(F)O2	195 °C
CN1CCC(C2c3cccc4c3N(CC4)c3ccccc3N2C)CC1 (centres undefined)	138 to 139 °C
CC(C)c1nc(COC(=O)N[C@@H](C)C(=O)N[C@@H](Cc2ccccc2)C[C@H](O)[C@H](Cc2ccccc2)NC(=O)OCc2cncs2)cs1	59 to 61 °C
CCCOc1ccc(O)cc1OC	54 to 56 °C
Cc1oc(-c2cc(C(F)(F)F)cc(C(F)(F)F)c2)nc1COc1cccc(CN(O)C(N)=O)c1	150 to 151 °C
CNc1c(F)ccc(-n2cc(C(=O)O)c(=O)c3cc(F)c(NC)c(Cl)c32)c1F	245 to 248 °C
COc1cc2ncc(NC(=O)C=Cc3cc(OC)c(OC(C)=O)c(OC)c3)c(-c3ccccc3)c2cc1OC	256 to 257 °C
CCc1noc(=O)n1C(=O)NC	82 °C
CC1c2cc(F)ccc2CCN1C(=O)c1cc2ncc(Br)cn2n1 (centres undefined)	174 to 176 °C

====

READOUT TYPE: melting point

COMPOUND	READOUT TYPE	READOUT VALUE
Cn1ncc(C(=O)c2ccc(S(C)(=O)=O)c(C3=NOCC3)c2Cl)c1O	melting point	> 250 °C
COc1cc2cc(C(N)=O)cnc2cc1F	melting point	231 °C
COc1cccc2c1C(=O)c1cccc3cc(O)cc-2c13	melting point	298 to 300 °C
Cn1c(CCN2CCC(c3ccccc3)CC2)nc2cc(Br)c3ccccc3c21	melting point	182 to 184 °C
CSc1sc(NC(=O)OC(C)(C)C)c(NC(=O)OC(C)(C)C)c1C#N	melting point	156 to 157 °C
COc1ccc(Nc2ccccc2CCC(=O)c2ccccc2)cc1	melting point	110 to 112 °C
CS(=O)(=O)Nc1ccc(C=C2c3ccccc3CCc3ccccc32)cc1	melting point	211 °C
O=C1CCC(N2Cc3cc(CNC(=O)c4ccc(Cl)cc4)ccc3C2=O)C(=O)N1 (stereo not given)	melting point	278 to 280 °C
O=C1c2ccccc2C(=O)N1OCc1cn(C(c2ccccc2)(c2ccccc2)c2ccccc2)nn1	melting point	195 to 200 °C
CC(C)n1nc(-c2sc(NC(=O)C3CC3)nc2-c2ccc(F)cc2)ccc1=O	melting point	250 to 252 °C
N#Cc1cccc(-c2ccc(O)cc2)c1	melting point	135 to 141 °C
O=C(c1ccccc1)N1CCC(O)(c2ccccc2Cc2ccccc2)C1 (stereo not given)	melting point	113 to 116 °C
CC1(C)CCC(Cc2ccc(Cl)cc2)C1(O)Cn1ccnc1 (stereo not given)	melting point	130 to 132 °C
O=c1[nH]c2cc(O)ccc2n1CCN1CCN(c2cccc(C(F)(F)F)c2)CC1	melting point	275 °C
Cc1c(C)c2c(c(C)c1N)CC(C)(CN1CC=C(c3c[nH]c4ccccc34)CC1)O2 (stereo not given)	melting point	169 to 173 °C
COc1ccc(C(=CC#N)c2cccc(N)c2)cc1OC	melting point	100 to 101 °C
COC(=O)CNC(=S)n1nc(-c2ccc(Cl)cc2)nc1N	melting point	142 to 145 °C
COC(=O)c1ccc(OCCNC(=O)OCc2ccccc2)c(Cl)c1	melting point	81 °C
COc1ccccc1Oc1c(Cl)nc(-c2cccs2)nc1Cl	melting point	118 to 120 °C
CCOc1cccc(-c2ccc(C3=CCN(S(=O)(=O)C4(C(=O)O)CCOCC4)CC3)cc2C)c1	melting point	203 to 205 °C

====

Reported melting point values are given for each entry in this list.

COMPOUND	melting point
C#CCOc1cccc(CCCCCCCCCCCCCCC)c1	26 to 27 °C
CCc1nc(N)nc(N)c1CCC(C)c1cccc(C(F)(F)F)c1 (stereo unspecified)	93 to 96 °C
C=CCOC(=O)N1CCC[C@@H](OC)[C@@H]1CC(=O)Cn1cnc2cc(Cl)c(Oc3ccc(Cl)cc3)cc2c1=O (relative stereo)	138 to 141 °C
O=C(O)Cc1ccccc1Oc1ccccc1	82 to 85 °C
O=C(NCCCCN1CCC(c2ccc3c(c2)OCO3)CC1)c1ccc(NC(=O)c2ccc(Cl)cc2)cc1	238 to 248 °C
COc1cccc(Cl)c1-c1cc2c(c3c1C(=O)NC3=O)c1cc(O)ccc1n2CCCBr	286 to 288 °C
O=[N+]([O-])c1cccnc1Oc1ccc2c(c1)OCC(c1ccccc1)O2 (stereo unspecified)	< 60 °C
CSc1ncc(CN)c(NC2CCCC2)n1	58 to 60 °C
CCOC(=O)C(N)N=Nc1ccc(Br)cc1C(=O)c1ccccn1 (stereo unspecified)	156 to 157 °C
O=C1CCCN1CCCn1c(=O)[nH]c2ncc(-c3ccc(O)cc3)nc21	305 to 306 °C
O=C(NC(=O)c1c(F)cccc1F)Nc1cc(Cl)c(OC(F)(F)C(F)(F)F)cc1Cl	178 to 179 °C
N#Cc1cnc2sc(-c3ccc(C=O)cc3)cc2c1Nc1ccc2[nH]ccc2c1	> 260 °C
O=C(O)c1cc([N+](=O)[O-])cc2c1Nc1ccc(CCCc3ccc(Cl)c(Cl)c3)cc1O2	90 to 93 °C
CNC(=S)N(C)Cc1cccnc1	86 to 87 °C
CCOC(=O)c1ccc(NC(=O)CC2c3ccccc3Sc3ccccc32)cc1	184 to 186 °C
COP(=O)(OC)OCN1C(=O)NC(c2ccccc2)(c2ccccc2)C1=O	123 to 124 °C
COC(=O)c1cc(-n2cnnn2)ccc1OC	185 to 187 °C
CNC(=O)Nc1cccc(-c2noc(C(F)(F)F)n2)c1	141 to 143 °C
C=CCCCC(C#N)(C#N)Cc1ccc(C#N)cc1	91.5 °C
Nc1nc(Nc2ccccc2)sc1C(=O)c1c(Cl)cccc1Cl	245 to 246 °C
Nc1cc(=O)n(-c2ccccc2)[nH]1	218 to 219 °C

====

# melting point per record follows
READOUT TYPE: melting point

COMPOUND	READOUT TYPE	READOUT VALUE
CCOC(=O)c1cn2c3c(c(F)c(F)cc3c1=O)CCC2CCl (stereo not given)	melting point	215 to 218 °C
O=C1NC(=O)c2ccc(I)cc2/C1=C/Nc1ccc(CN2CCCCC2)cc1	melting point	202 to 203 °C
N#Cc1ccc(N2C(=O)NC3(CCSCC3)C2=O)cc1C(F)(F)F	melting point	209 to 210 °C
O=C(CON1C(=O)c2ccccc2C1=O)OC(c1ccccc1)c1ccccc1	melting point	173 to 175 °C
CCOC(=O)Cc1c2cc(F)ccc2n2c(-c3ccc(S(C)=O)cc3)nccc12 (stereo not given)	melting point	133 to 135 °C
CCN1CCCC(NC(=O)c2cc(C)on2)C1 (stereo not given)	melting point	84 to 86 °C
O=C(Nc1ccc(C2(O)CCCN(C(=O)OCc3ccccc3)C2)c(F)c1)OCc1ccccc1 (stereo not given)	melting point	137 to 139 °C
O=C(NCc1ccc(Cl)cc1)c1cnc2ccc(O)cc2c1O	melting point	319 to 320 °C
CCC1Cc2cc(OCC(=O)O)c(Cl)c(Cl)c2C1=O (stereo not given)	melting point	171 to 172 °C
CCOC(=O)c1cc(=O)c2c(OCCn3c(=O)sc4ccc(Cl)cc43)cccc2o1	melting point	177 to 178 °C

====

Item-by-item account of melting point

COMPOUND	melting point
Brc1ccccc1SSc1ccccc1Br	95 to 97 °C
COc1ccc(S(=O)(=O)N2CCc3cccc(-c4ccc(N)cc4)c32)cc1	184 to 186 °C
CCOC(=O)CN1C(=O)C2(COc3cc(F)c(F)cc32)c2c(Br)cccc21 (stereo not given)	133 to 134 °C
COc1cccnc1C(O)c1ccc(NC(=O)C2=Cc3cc(-c4ccc(C)cc4)ccc3OCC2)cc1 (stereo not given)	232 to 233 °C
CCOC(=O)Cc1c(C(=O)OCC)c(C)c(C(=O)OCC)n1CC	142 to 145 °C
